Experiment: viability gain of MRP-1-high H69AR cells under doxorubicin, pilot screen, MRP-1 activator project, CellTiter-Glo, duplicate (AID 807);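 further: compound pretreatment 18-22 h then 72 h combined with doxorubicin; 0% = doxorubicin alone and 100% = vehicle without doxorubicin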
Conditions: H69AR viability with doxorubicin, CellTiter-Glo luminescence; at 10 µM; active compounds read high
recorded metric: viability increase (%)
A number alone suffices; assume %.

Cc1ccc(C2CC(c3ccccc3Cl)n3nc(N)nc3N2)cc1 (stereo not drawn) | 2.22

Value lookup for viability increase; key = O=C(NCCCN1CCC(Cc2ccccc2)CC1)C1CCC(=O)N1C1CCCC1 (stereo not drawn)
-0.92

# viability increase lookup, item `COc1ccccc1Nc1cc(C(=O)NCCCN2CCOCC2)c2ccccc2n1`
-3.47

For `O=C(CCc1nc2ccccc2[nH]1)N1CCc2ccccc2C1` , what is its reported viability increase?
-1.86

Item `COc1cccc(NC=C2C(=O)OC3(CCCCC3)OC2=O)c1` has what recorded viability increase?
-1.85

Suppose we examine the compound CCC(C)NC(=O)C1CCC(=O)N(c2ccc3c(c2)OCO3)C1c1ccc(OC)cc1 (stereo not drawn) ; what viability increase value has been reported?
-1.78

// lookup viability increase for Cn1c(=O)oc2cc(S(=O)(=O)NC(Cc3ccccc3)C(=O)N3CCCCC3)ccc21 (stereo not drawn)
-2.55

viability increase lookup needed for CCOc1ccc(OCC)c(NC(=O)C2CCCN2S(=O)(=O)c2cccc3cccnc23)c1 (stereo not drawn) , thanks.
-3.84

Would you mind telling me what viability increase value was observed for `CCOC(=O)Cn1c(=O)oc2cc(S(=O)(=O)Nc3cc(Cl)ccc3OC)ccc21` ?
-2.35

Fill in the blank: the reported viability increase of `CCOC(=O)c1ccn(-c2nc(-c3ccco3)cc(C(F)(F)F)n2)n1` is ____.
1.27

Any idea what its viability increase is? The compound is `COc1ccc(-n2nnc3c(=O)n(CC(=O)N4CCCCC4)cnc32)cc1`
-0.73

Bench note: what viability increase did `Cc1cc(=O)c2c(C)nn(-c3ccccc3)c2[nH]1` show?
-2.26

State the recorded viability increase for this entry: CCCN1C(=O)c2cc(C(=O)NCCc3cccc(C)c3)ccc2C1O (stereo not drawn)
-3.1

State the recorded viability increase for this entry: COC(=O)c1ccc2c(c1)N(Cc1nc(-c3cccc(C)c3)oc1C)C(=O)C1CCCN21 (stereo not drawn)
-2.37
